Target: T1, human big-ET-1 (SEQ ID NO:434) (Homo sapiens, UniProt P05305)
T1 sequence (P05305 53-90 limits assumed): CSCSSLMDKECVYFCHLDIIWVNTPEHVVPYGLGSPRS
Test: Surface plasmon resonance (Biacore) binding, mAb capture format, 37° C.
Settings: analyte human big-ET-1, mAb capture

{"molecule": "H4H6329P: anti-big-ET-1 antibody, human IgG4 Fc; HCVR/LCVR SEQ ID NO: 194/202 (antibody, V domains shown, human IgG4 Fc) VH: QVQLVESGGGVVQPGRSLRLSCAASGFTFGSYGMHWVRQAPGKGLEWVAVIWYDGSDEYYTDSVKGRFTVSRDNSKYTLYLQMNSLRADDTAVYYCARDGYRTRGNYFDYWGQGTLVTVSS VL: DVVMTQSPLSLPVALGQPASISCRSSQSLVYSDGNTYLNWFQQRPGQSPRRLIYKVSNRDSGVPDRFGGSGSGTDFTLKISRVEAEDVGLYYCMQGTHWPPTFGGGTKVEIK", "kd, s⁻¹": 0.000176}
{"molecule": "H4H6330P: anti-big-ET-1 antibody, human IgG4 Fc; HCVR/LCVR SEQ ID NO: 210/218 (antibody, V domains shown, human IgG4 Fc) VH: EVQLVESGGGLVQPGGSLRLSCAASGFTFSNYAMSWVRQAPGKGLEWVSAVSGSGVGTYYADSVKGRFTISRDNSKNTLYLQMKSLSAEDTALYYCTKTLGGTHAFDIWGQGTMVTVSS VL: DIQMTQSPSTLSASVGDRVTITCRASQSISRWLAWYQQKPGKAPKLLIYKASSLESGVPSRFSGSGSGTEFTVTINSLQPDDFATYYCQQYNSYSSFGQGTKLEIK", "kd, s⁻¹": 0.0324}
{"molecule": "H1M6494N: anti-big-ET-1 hybridoma antibody, H1M Fc; HCVR/LCVR SEQ ID NO: 50/58 (antibody, V domains shown, mouse Fc) VH: EVQLVESGGGLVKPGGSLRVSCVASGFTFSNAWMTWVRQTPGKGLECVGRIKSRTDGGTVDYVAPVKGRFTISRDDSKNTLYLQMNSLKAEDTAVYYCRADLDYWGQGTLVTVSS VL: DVVMTQSPLSLPVSLGQPASISCRSSQSLVHSDGITYLNWFQQRPGQSPRRLIYKISNRDSGVPDRFSGSGSGTDFTLKFSRVEAEDVGVYFCMQGTHWPYTFGQGTKLEIK", "kd, s⁻¹": 0.00169}
{"molecule": "H4H6345P: anti-big-ET-1 antibody, human IgG4 Fc; HCVR/LCVR SEQ ID NO: 354/362 (antibody, V domains shown, human IgG4 Fc) VH: EVQLVESGGGLVQPGGSLRLSCAASGFIFSSYAMTWVRQAPGKGLEWVSAISGSGVSTYYADSVKGRFTISRDNSKNTLYLQMNSLRIEDTAVYYCGKARTGTHAFDIWGQGTMVTVSS VL: DIQMTQSPSTLSASVGDRVTITCRASQSISRWLAWYQQKPGKAPKLLIYKASSLETGVPSRFSGSGSGTEFTLTISSLQPDDFGTYYCQQYNSYSSFGPGTKVDIK", "kd, s⁻¹": 0.058}
{"molecule": "H4H6353P: anti-big-ET-1 antibody, human IgG4 Fc; HCVR/LCVR SEQ ID NO: 386/394 (antibody, V domains shown, human IgG4 Fc) VH: EVQLVESGGGLVKPGGSLRLSCAASGFSFNYAWMSWVRQAPGKGLEWIGRIKSKINGGTTDYTAPVKGRFTISRDDSKNTLYLQMNSLKTEDTAVYYCRGDEDFWGQGTLVTVSS VL: DVVMTQSPLSLPVTLGQPASISCRSSQSLVYSDGFTYLNWFRQRPGQSPRRLIYKVSNRDSGVPDRFSGSGSGTDFTLRISRVEAEDVGIYYCMQGTHWPYTFGQGTKLEIK", "kd, s⁻¹": 0.00116}
